Task for the reader: assign each of the following compounds its reported pIC50.
Tested on: IL-6
Experiment: IL-6 expression (ELISA) in Ad5-wt-ER infected HAECT-1 cells (IL-1β stimulated)
Format: cell-based, human
Conditions: Homo sapiens, HAECT1, Ad5-wt-ER infected HAECT-1 cells
Numbers only, as −log10 of the molar value.

[
  {
    "Compound": "COc1ccccc1C(c1cccc2ccccc12)C(C)(C#N)C#N (centres unmarked)",
    "Reported property": "pIC50",
    "Reported measurement": 7.62
  },
  {
    "Compound": "COc1cccc(C(c2cccc3ccccc23)C(C#N)C#N)c1 (centres unmarked)",
    "Reported property": "pIC50",
    "Reported measurement": 5.98
  },
  {
    "Compound": "N#CC(C#N)C(c1cccc2ccccc12)c1cccc2ccccc12 [Ex. 8, 2-[Di(1-naphthyl)methyl]malononitrile]",
    "Reported property": "pIC50",
    "Reported measurement": 6.25
  }
]

List reported pIC50 for each of these compounds:
1. COc1ccccc1C(c1cccc2ccccc12)C(C#N)C#N (centres unmarked)
2. Cc1ccccc1C(c1cccc2ccccc12)C(C#N)C#N (centres unmarked)

Result:
1: 5.91; 2: 6.00

// provenance: patent US7425580B2
